- CONDITION CONTEXT: [M+H]+; instrument: DT; single field, calibrated with Agilent tune mix (Agilent)
// values below are reported collision cross section (N2)

{"MOLECULE": "CCCCCCCC/C=C\\CCCCCCCCCCCC(=O)OC[C@H](COP(=O)([O-])OCC[N+](C)(C)C)OC(=O)CCCCCCCCCCCCC [PC(36:1)]", "collision cross section (N2)": "293.9 Å²"}
{"MOLECULE": "CCCCC/C=C\\C/C=C\\CCCCCCCCCCCC(=O)O[C@H](COC(=O)CCCCCCC/C=C\\C/C=C\\CCCCC)COP(=O)([O-])OCC[N+](C)(C)C [PC(40:4)]", "collision cross section (N2)": "300.2 Å²"}
{"MOLECULE": "CCCCCC/C=C\\CCCCCCCC(=O)OC[C@H](COP(=O)(O)OCCN)OC(=O)CCCCCCCCC/C=C\\CCCCCCCCCC [PE(38:2)]", "collision cross section (N2)": "285.1 Å²"}
{"MOLECULE": "CCCC/C=C\\CCCCCCCC(=O)O[C@H](CO/C=C\\CCCCCCCCCCCCCCCCCC)COP(=O)(O)OCCN [PE(p34:1)]", "collision cross section (N2)": "273.2 Å²"}
{"MOLECULE": "CCCC/C=C\\C/C=C\\CCCCCCCC(=O)O[C@H](COC(=O)CCCCCCC/C=C\\CCCCCCCCC)COP(=O)(O)O[C@H]1C(O)C(O)C(O)[C@@H](O)C1O (stereo not given in full) [PI(36:3)]", "collision cross section (N2)": "296.4 Å²"}
{"MOLECULE": "CCCCCCCCCCCCCCCC/C=C\\OC[C@H](COP(=O)(O)OCCN)OC(=O)CCCCCCCCCCCCCCCCC [PE(p36:0)]", "collision cross section (N2)": "281.6 Å²"}
{"MOLECULE": "CCCCCC/C=C\\CCCCCCCCCC(=O)OC[C@H](COP(=O)([O-])OCC[N+](C)(C)C)OC(=O)CCCCCCC/C=C\\CCCCCC [PC(34:2)]", "collision cross section (N2)": "285.2 Å²"}
{"MOLECULE": "CCCCCCCCCCCCCCCCCC(=O)N[C@@H](CO)[C@H](O)CCCCCCCCCCCCCCC [Cer(36:0)]", "collision cross section (N2)": "262 Å²"}
{"MOLECULE": "CCCC/C=C\\C/C=C\\CCCCCCCC(=O)O[C@H](COC(=O)CCCCCCC/C=C\\CCCCCCCC)COP(=O)([O-])OCC[N+](C)(C)C [PC(35:3)]", "collision cross section (N2)": "284.2 Å²"}
{"MOLECULE": "CCCCC/C=C\\C/C=C\\C/C=C\\CCCCCCC(=O)O[C@H](COC(=O)CCCCCCC/C=C\\C/C=C\\CCCCC)COP(=O)(O)OCCN [PE(38:5)]", "collision cross section (N2)": "280.1 Å²"}
